Experiment: chemical genetic growth profiling, strain panel (AID 1159580);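 further: tested at 20 µM; growth read once vehicle control cultures reached saturation at 30 °C; 1 = growth at the plate median or of vehicle wells; lower values mean less growth of the strain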
Conditions: S. cerevisiae deletion strains, growth OD, locus YLR262C, strain YPT6, hits give low values
Hit rate of the full screen: of about 5,500 compounds, about 2,000 (36%) were called active. Not shown: some 18% with an inconclusive outcome. Some of the results follow.
Doc: threshold 1 (exclusive). Items with normalized growth beneath it return 1; others return 0.

| molecule | category_label |
| --- | --- |
| CC(=O)C1CCC2C3CCC4C[C@H](O)CCC4(C)C3C[C@H](O)C12C (stereo partly specified) | 0 |
| C1N2CN3CN1CN(C2)C3 | 1 |
| C[C@]12CCC3C(CC[C@H]4C[C@@H](O)CC[C@]34C)C1CC[C@@H]2O (stereo partly specified) | 1 |
| CCCCCCCCCCCC(=O)OCC(COP(=O)(O)OCC(O)COP(=O)(O)OCC(COC(=O)CCCCCCCCCCC)OC(=O)CCCCCCCCCCC)OC(=O)CCCCCCCCCCC (stereo unspecified) | 1 |
| COc1cc2c(cc1OC)C1(O)C(=O)c3ccc(O)c(C(=O)O)c3OC1CO2 (stereo unspecified) | 0 |
| O=C1c2ccccc2C2(c3ccccc3)NCCN12 (stereo unspecified) | 1 |
| Cc1cc(/C=C/c2ccc3cc(N(C)C)ccc3[n+]2C)c(C)n1-c1ccccc1 | 1 |
| COC1=CC(=O)OC(CCc2ccc(OC)c(OC)c2)C1 (stereo unspecified) | 0 |

====

Assay: chemical genetic growth profiling, strain panel (AID 1159580)
Conditions: S. cerevisiae deletion strains, growth OD, locus YNL183C, strain NPR1, hits give low values
About 2,000 (36%) of roughly 5,500 compounds were called active. About 18% were inconclusive and are not listed. This is one part of the list.

| compound | normalized growth |
| --- | --- |
| Clc1ccc(C(c2ccccc2Cl)C(Cl)Cl)cc1 (stereo not drawn) | 0.914 |
| NC1(C(=O)O)CC1 | 0.964 |
| CC(=O)O[C@@H]1CC2C(C)(C)[C@H](O)CC[C@]2(C)C2CC[C@@]3(C)[C@H](c4ccoc4)OC(=O)C4OC43[C@@]21C (stereo partly drawn) | 1.01 |
| FC(F)(F)c1cc(NC(=S)SCCSC(=S)Nc2cc(C(F)(F)F)cc(C(F)(F)F)c2)cc(C(F)(F)F)c1 | 1.03 |
| CC(=O)O[C@H]1C[C@@H](OC(C)=O)C(C)(C)C2C[C@@H](OC(C)=O)[C@]3(C)C(CC[C@@]4(C)[C@H](c5ccoc5)OC(=O)[C@H]5O[C@]543)[C@]21C (stereo partly drawn) | 0.93 |
| O=S(=O)(Nc1csc(C(F)(F)F)c1-c1ccccc1)c1cc(Br)c(Br)s1 | 0.814 |
| Nc1ccccc1C(=O)Nc1cc(C(F)(F)F)cc(C(F)(F)F)c1 | 0.871 |
| CC(=O)O[C@@H]1CC2C(C)(C)[C@@H](O)CC[C@]2(C)C2CC[C@@]3(C)[C@H](c4ccoc4)OC(=O)[C@H]4O[C@]43[C@@]21C (stereo partly drawn) | 0.976 |

====

# normalized growth per entry
Assay: chemical genetic growth profiling, strain panel (AID 1159580)
Details: S. cerevisiae deletion strains, growth OD, locus YOR001W, strain rrp6, hits give low values
Out of some 5,500 compounds screened, about 2,000 (36%) were called active. Another 18% or so got no clear call; they are omitted. The list shows a part of the results.

| compound | normalized growth |
| --- | --- |
| Clc1ccc(CSC(Cn2ccnc2)c2ccc(Cl)cc2Cl)cc1 (stereo unspecified) | 0.0726 (active) |
| Cc1onc(-c2ccccc2)c1-c1ccc(S(N)(=O)=O)cc1 | 1 (inactive) |
| CC(=O)C1CCC2C3CCC4C[C@H](O)CCC4(C)C3C[C@H](O)C12C (stereo partly specified) | 0.961 (inactive) |
| CC(C)c1nc(N(C)S(C)(=O)=O)nc(-c2ccc(F)cc2)c1/C=C/[C@@H](O)C[C@@H](O)CC(=O)O | 1.01 (inactive) |
| CC12CCCCC1(Br)[N+](=O)N2[O-] (stereo unspecified) | 0.958 (inactive) |
| CC1(C)N([O-])[N+](=O)C1(C)Br (stereo unspecified) | 0.988 (inactive) |

====

Assay: chemical genetic growth profiling, strain panel (AID 1159580);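 further: tested at 20 µM; growth read once vehicle control cultures reached saturation at 30 °C; 1 = growth at the plate median or of vehicle wells; lower values mean less growth of the strain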
Conditions: S. cerevisiae deletion strains, growth OD, locus YDL101C, strain DUN1, hits give low values
The whole screen tested about 5,500 compounds, of which about 2,000 (36%) were called active. Roughly 18% stayed inconclusive and do not appear here. The list shows a part of the results.

| molecule | normalized growth |
| --- | --- |
| COc1ccc(C(=O)c2sc(Nc3ccccc3)nc2-c2ccccc2)cc1 | 1 |
| O=c1[nH]c(=O)n(C2C[C@H](O)[C@@H](CO)O2)cc1C(F)(F)F (stereo not given in full) | 0.987 |
| FC(F)(F)c1ccc2[nH]c(=S)[nH]c2c1 | 0.983 |
| CC12CCC3C(=CCc4cc(O)ccc43)C1CCC2=O (stereo not given) | 0.975 |
| NC(=O)NC1NC(=O)NC1=O (stereo not given) | 0.981 |
| CN[C@@H]1C(OC2[C@H](O[C@H]3[C@H](O)[C@@H](O)[C@H](N=C(N)N)[C@@H](O)[C@@H]3N=C(N)N)OC(C)[C@]2(O)CO)OC(CO)C(O)C1O (stereo not given in full) | 0.979 |
| Cn1c(=S)[nH]c2cc(C(F)(F)F)ccc21 | 0.968 |
| C[C@]12CCC3c4ccc(OC(=O)CCC(=O)O)cc4CCC3C1CCC2=O (stereo not given in full) | 0.999 |
| CC1C(c2ccccc2)N(C)C(c2ccccc2)CC1(O)c1ccc(F)cc1 (stereo not given) | 0.986 |
| CC(C)/C(O)=C1/C(=O)O[C@@H](c2ccoc2)[C@]2(C)C(O)[C@@H](O)[C@@]34OC5(C)OC67CC(C)(C(O)[C@]6(O)[C@@H](O)[C@]3(O5)C12)[C@H](CC(=O)O)[C@]74C (stereo not given in full) | 1.01 |

====

Assay: chemical genetic growth profiling, strain panel (AID 1159580);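 further: tested at 20 µM; growth read once vehicle control cultures reached saturation at 30 °C; 1 = growth at the plate median or of vehicle wells; lower values mean less growth of the strain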
Settings: S. cerevisiae deletion strains, growth OD, locus YOR231W, strain MKK1
Out of some 5,500 compounds screened, about 2,000 (36%) were called active. About 18% were inconclusive and are not listed. Cut-off read from the data, not from the text of the source: active = normalized growth mostly below about 0.91 (no sharp cut-off); inconclusive = no clear call, values can overlap the other calls; inactive = mostly above about 0.92. The list shows a part of the results.
Outcome codes: 1 (active), -1 (inactive)

| compound | category_label |
| --- | --- |
| C[C@]12C=CC(=O)C=C1CCC1C2[C@@H](O)C[C@@]2(C)C1CC[C@]2(O)C(=O)CO (stereo not given in full) | -1 |
| O=c1cccc2n1CC1CC2CN2CCCC[C@@H]12 (stereo not given in full) | -1 |
| Cc1noc(C)c1S(=O)(=O)Nc1csc(C(F)(F)F)c1-c1ccccc1 | -1 |
| O=S(=O)(Nc1csc(C(F)(F)F)c1-c1ccccc1)c1cc(Br)c(Br)s1 | -1 |
| Clc1ccc(C(Cn2ccnc2)OCc2ccsc2Cl)c(Cl)c1 (stereo not given) | 1 |
| COc1ccc2c(c1)CCc1sc(NC(=O)c3ccco3)nc1-2 | -1 |
| CNCC[C@H](Oc1cccc2ccccc12)c1cccs1 | -1 |
| Cc1cccc(C)c1NC(=O)C1CCCCN1C (stereo not given) | -1 |
| CC(C)/C(O)=C1/C(=O)O[C@@H](c2ccoc2)[C@]2(C)C(O)[C@@H](O)[C@@]34OC5(C)OC67CC(C)(C(O)[C@]6(O)[C@@H](O)[C@]3(O5)C12)[C@H](CC(=O)O)[C@]74C (stereo not given in full) | -1 |
| CC1(C)N([O-])[N+](=O)C1(C)Br (stereo not given) | -1 |

====

Assay: chemical genetic growth profiling, strain panel (AID 1159580);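 further: tested at 20 µM; growth read once vehicle control cultures reached saturation at 30 °C; 1 = growth at the plate median or of vehicle wells; lower values mean less growth of the strain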
Conditions: S. cerevisiae deletion strains, growth OD, locus YNL322C, strain KRE1, hits give low values
Out of some 5,500 compounds screened, about 2,000 (36%) were called active. Inconclusive results (about 18%) are left out. The list shows a part of the results.
measurement_kind: normalized growth

| molecule | readout_number |
| --- | --- |
| S=C(S)OC1CC2CC1C1CCCC21 (stereo not given) | 1.01 |
| NC(N)=NCCCCN=C(N)N | 0.977 |
| Cc1cc(Cl)ccc1Oc1ccc(N)cn1 | 1.01 |
| CC(C)(C)NC(=S)NC1CCN(Cc2ccccc2)CC1 | 0.995 |
| O=C1NC2(CCN(Cc3ccccc3)CC2)Oc2ccccc21 | 0.997 |
| COC(=O)/C(C)=C\CC12OC(C)(C)C3CC(C=C4C(=O)c5c(OC)c6c(c(CC=C(C)C)c5OC431)OC(C)(CCC=C(C)C)C=C6)C2=O (stereo not given) | 1 |
| Brc1cccc(C=NCc2ccccc2)c1 | 0.983 |
| NC(N)=NCCN1CCCCCCC1 | 1 |
| O=C(O)C1CCCNC1 (stereo not given) | 1.01 |
| O=C1C2C3C=CC(C3)C2C(=O)N1c1ccc(F)c(F)c1 (stereo not given) | 1.02 |
| NC1(C(=O)O)CCC1 | 0.997 |
| Clc1ccc(Oc2ccnc3cc(Cl)ccc23)cc1 | 0.947 |
| Cc1c(C)c(C)c(CSc2nc3ccccc3[nH]2)c(C)c1C | 1.02 |
| O=c1[nH]c(=O)n(C2C[C@H](O)[C@@H](CO)O2)cc1C(F)(F)F (stereo not given in full) | 0.989 |
| Cc1cc2c3c(c1)c(O)cc(=O)n3CCC2 | 0.993 |
| CCCc1c(-c2ccc(O)cc2)nn(-c2ccc(O)cc2)c1-c1ccc(O)cc1 | 0.988 |
| Nc1ccc(Oc2ccc(Cl)cc2C2CCCCC2)nc1 | 0.945 |
| OCc1nccn1Cc1ccc(Cl)cc1 | 1 |
| O=S(=O)(NCC1CC1)c1ccc(F)c(Cl)c1 | 0.995 |
| N#Cc1cccc(CSC2=NCN(C3CC3)CN2)c1 | 0.999 |
| CC(O)C(C)OC(=O)[C@@H]1C[C@@H]2c3cccc4c3c(cn4C(C)C)C[C@H]2N(C)C1 (stereo not given in full) | 0.973 |
| COc1cc2c(CCNC(C)=O)c[nH]c2cc1Cl | 0.998 |
| O=NN(CCCl)C(=O)NCCCl | 1 |
| O=S(=O)(NCc1ccc2c(c1)OCO2)c1ccc(F)c(Cl)c1 | 0.967 |
| COc1ccc(CCC(=O)c2c(O)cc(O[C@@H]3O[C@H](CO)C(O)[C@H](O)C3O[C@@H]3O[C@@H](C)[C@H](O)[C@@H](O)[C@H]3O)cc2O)cc1O (stereo not given in full) | 0.993 |
